// Relative cell survival rate (%) lookup, one value per entry
test system: T lymphocyte cell line Jurkat E6-1; assay: Cytotoxicity experiment (CCK-8, relative cell survival); type: cell-based; conditions: 10 μM; 24 hours; untreated cells = 100%
Use % as the unit, but write only the number.

Past entries and their recorded results:
CCCCCCCCCCCC(=O)NCc1ccccc1Br = 101
CCCCCCCCCCCCNC(=O)c1cccnc1Nc1cccc(C(F)(F)F)c1 = 100
CCCCCCCCNC(=O)c1cccnc1N = 101
CCCCCCCCCCCCNC(=O)c1nccc2ccccc12 = 113
CCCCCCCCCCCCNC(=O)c1ccccc1C(=O)NC1CCCCC1 = 96

Entry CCCCCCCCCCCCNC(=O)c1ccncc1Cl , tested on T lymphocyte cell line Jurkat E6-1, has a reported Relative cell survival rate (%) of 100

Lab note: compound CCCCCCCCCCCCNC(=O)Cc1ccccc1 tested on T lymphocyte cell line Jurkat E6-1; recorded Relative cell survival rate (%) was 95

Noted Relative cell survival rate (%) for CCCCCCCCCCCCNC(=O)c1cccnc1Oc1ccc(Cl)cc1 , tested on T lymphocyte cell line Jurkat E6-1: 101

Note to self: Relative cell survival rate (%) of CCCCCCCCCCCCNC(=O)c1ccccc1[N+](=O)[O-] with T lymphocyte cell line Jurkat E6-1 was 74

# Relative cell survival rate (%) measured on T lymphocyte cell line Jurkat E6-1 for item CCCCCCCCCCCCNC(=O)c1ccccc1C(=O)O = 90

====

Below is a list of entries, each paired with its recorded inhibition at 50 µM value.
system: spleen T cells; test: T cell proliferation inhibition (CFSE, FACS), CD3/CD28-activated spleen T cells; assay type: cell-based, C57BL/6 mice; conditions: Mus musculus, T-cell, 72 h; Table 2; 50 μM; 3 days; relative to CD3/CD28+DMSO; read-out: Proliferation inhibition rate (%)
Give a bare numeral; the unit % is implied.

Test item CCCCCCCCCCCCNC(=O)c1ccccc1Nc1cccc(C)c1C ; spleen T cells; reported inhibition at 50 µM was 100

# CCCCCCCCCCCCNC(=O)c1c(Cl)cccc1Cl with spleen T cells: inhibition at 50 µM is 89

# lookup: C=Cc1ccccc1C(=O)NCCCCCCCCCCCC on spleen T cells, inhibition at 50 µM = 100

Measured on spleen T cells, CCCCCCCCCCCCNC(=O)c1cccnc1Cl has a documented inhibition at 50 µM of 100

====

system: T lymphocyte cell line Jurkat E6-1; assay: Cytotoxicity experiment (CCK-8, relative cell survival); assay type: cell-based; conditions: 10 μM; 24 hours; untreated cells = 100%
value kind: Relative cell survival rate (%)
Entry rule: numbers only, all in %.

Past entries and their recorded results:
CCCCCCCCCCCCNS(=O)(=O)c1c(C)cc(C)cc1C [Compound 41] = 85
CCCCCCCCCCCCNC(=O)c1ccccc1I [Compound 63] = 70
CCCCCCCCCCCCNC(=O)c1ccccc1C(=O)c1ccc(Cl)cc1 [Compound 16] = 121
CCCCCCCCCCCCNC(=O)c1ccc(F)c(F)c1F [Compound 55] = 115
CCCCCCCCCCCCNC(=O)c1cccnc1N [Compound 69] = 95

Entry CCCCCCCCCCCCNC(=O)c1ccc2ccccc2n1 [Compound 22] — recorded Relative cell survival rate (%) = 42

For reference, reported Relative cell survival rate (%) for CCCCCCCCNCCCNC(=O)c1nccnc1Cl [Compound 82] stands at 95
